Reported Population Pyknosed Nuclei (%) values for a set of compounds
Tested on: U2OS
Experiment: Multiplex assay against U2OS
Assay type: toxicity, cell-based
Details: human, 48 h, 10 µM, compound concentration 10 uM, replicate 1
All answers are understood in %, so give the number only.

Recorded Population Pyknosed Nuclei (%), per entry:
Ask | Fill in the blank: the reported Population Pyknosed Nuclei (%) of `Cl.Cl.Nc1ncnc2c1c(-c1cccc(OCc3ccccc3)c1)cn2[C@H]1C[C@@H](CN2CCC2)C1` is ____.
Reply | 61

Ask | Queued: CC(C)Oc1ccc(C(=O)N[C@H](CNC(=O)CN(C)C)Cc2ccc(-c3cn4cccc([C@H](C)O)c4n3)cc2)cc1Cl [GSK-923295A]
Reply | 40

Ask | Lookup `CNc1oc(-c2cccc3ccccc23)nc1C#N`
Reply | 27

Ask | Moving on to the next compound: `CCc1cc2c(cc1CC)CC(NC[C@H](O)c1ccc(O)c3[nH]c(=O)ccc13)C2`
Reply | 45

Ask | Similarly, CCC(=O)O[C@]1(C(=O)SCF)[C@H](C)C[C@H]2[C@@H]3C[C@H](F)C4=CC(=O)C=C[C@]4(C)[C@@]3(F)[C@@H](O)C[C@@]21C [FLUTICASONE PROPIONATE] ?
Reply | 19

Ask | Again, but for `Nc1ccc(C(=O)Nc2cccc(-c3nc(N4CCOCC4)c4oc5ncccc5c4n3)c2)cn1`
Reply | 31

Ask | Another: CCn1c(-c2nonc2N)nc2cnc(Oc3cccc(NC(=O)c4ccc(OCCN5CCOCC5)cc4)c3)cc21 [GSK-269962A]
Reply | 34

Ask | One more compound: `CC(=O)c1cc(-c2cc(C(=O)NC3CC3)ccc2C)c2ncccn12`
Reply | 22

Ask | Input `Nc1nc2c(c(N3CCNCC3)n1)CCC1=C2[C@@H]2CCCC[C@@H]2O1`
Reply | 48

Ask | Next compound up: `COc1ccc(NS(=O)(=O)c2sc3ccc(Cl)cc3c2C)cc1N1CCNCC1.Cl`
Reply | 41

---
Ask | Can you look up the measured Population Pyknosed Nuclei (%) of `C1=N/C2=N/c3ccc(OCCN4CCCC4)c(c3)COC/C=C\COCc3cccc(c3)C(=C1)N2` for me?
Reply | 70

Ask | Then `CCCn1c(=O)c2[nH]c(C34CC5CC(CC3C5)C4)nc2n(CCC)c1=O` ?
Reply | 37

Ask | Try `COc1cc2c(NC3CCN(C(C)C)CC3)nc(N3CCC(F)(F)CC3)nc2cc1OCCCN1CCCC1` next.
Reply | 35

Ask | Same lookup for `CC(C)N1CCC(C)(C)c2cc(C#Cc3ccc(C(=O)O)cc3)ccc21` , please.
Reply | 3

Ask | Also need `Cc1cc2c(cc1N1C(=O)c3cccc4c(CCCO)ccc(c34)C1=O)n(C)c(=O)n2C` , thanks.
Reply | 25

Ask | Queued: `O=C(O)c1ccc2cc(-c3ccc(O)c(C45CC6CC(CC(C6)C4)C5)c3)ccc2c1`
Reply | 19

Ask | Then what about the compound Cc1nc(Cc2cccc(C(F)(F)F)c2)sc1-c1ccc(C(N)=O)nc1 [TP-024n] ?
Reply | 22

====

Test system: HEK-293T
Experiment: Multiplex assay against HEK293T
Format: toxicity, cell-based
Conditions: human, 24 h, 1 µM, compound concentration 1 uM, replicate 1
Each item that follows carries a reported Population Fragmented Nuclei (%).
Report only the number, with the unit % understood.

Example results:
Ask | I have this compound here, `COc1cc2c(NC3CCN(C(C)C)CC3)nc(N3CCC(F)(F)CC3)nc2cc1OCCCN1CCCC1` , and I need its recorded Population Fragmented Nuclei (%).
Reply | 16

Ask | Field entry: `Cc1cc2c(cc1N1C(=O)c3cccc4c(CCCO)ccc(c34)C1=O)n(C)c(=O)n2C`
Reply | 13

Ask | Now this one: N#Cc1cnc(Nc2cc(NC[C@H]3CNCCO3)c(C(F)(F)F)cn2)cn1 [SRA-737]
Reply | 10

Ask | Ok, now CC(C)(C)c1cnc(CSc2cnc(NC(=O)C3CCNCC3)s2)o1 [BMS-387032]
Reply | 21

Ask | Let us now turn to `COc1ccc(NS(=O)(=O)c2sc3ccc(Cl)cc3c2C)cc1N1CCNCC1.Cl`
Reply | 21

Continuing:
Ask | Return reported Population Fragmented Nuclei (%); argument: CNC(=O)c1cc(Oc2ccc(NC(=O)Nc3cc(C(C)(C)C)nn3-c3ccc4ncccc4c3)c(F)c2)ccn1 [REBASTINIB]
Reply | 19

Ask | Could you do the same for `COc1cc2c(Nc3ccc(NC(=O)c4ccccc4)cc3)ncnc2cc1OCCCN1CCOCC1` , please?
Reply | 14

Ask | Would you mind doing `Nc1ccc(C(=O)Nc2cccc(-c3nc(N4CCOCC4)c4oc5ncccc5c4n3)c2)cn1` as well?
Reply | 22

Ask | And for `CCOc1cc(N2CCC(O)CC2)ccc1Nc1ncc2c(n1)N(C1CCCC1)CCC(=O)N2C` ?
Reply | 16
